Below is a list of entries, each paired with its recorded SPOT peptide array binding signal intensity value.
- systemUnderTest: ScBbc1
- procedureDetails: SPOT peptide array binding signal intensity (averaged, normalized) (arbitrary units (background-subtracted, floor 0; scale differs between SH3 domains)); higher = stronger binding of the SH3 domain to the peptide
reportedEndpoint: SPOT peptide array binding signal intensity

{"columns": ["binder", "recordedResult"],
 "data": [
  ["SSSSSPPPLPTRRDH", 4],
  ["RSKRLFPVRPMATAH", 10],
  ["YLTRPLPSTPNEDSR", 5],
  ["TKHKAPPPPPPTAET", "≤ 0"],
  ["QTREPNEPPPPSPAM", "≤ 0"],
  ["STKKPRPPVKSKPKH", 5.5],
  ["RRGPAPPPPPRASRP", 150],
  ["TPTSGPPLLPPRNTM", 1],
  ["APPPPPRRATPEKKP", 54.8],
  ["LFMKGTPEFPKSGFS", "≤ 0"],
  ["RRRIAYPFYPFKKLG", "≤ 0"],
  ["ITHRLRISIPGITGR", 16.8],
  ["SGVRLPAPPPPPRRG", 267],
  ["ALFRLSFFFPLDPAY", 9.5],
  ["SKSRLLIELPEGFFT", 1],
  ["RMVRRRPLRVQFSAR", 90.2],
  ["TKFRISLGLPVGAIM", 17],
  ["RRSKSLPTTPGIRSG", 19.2],
  ["QRKSLRRPTLSKPAV", 45.8],
  ["TKPTPPPKPSHLKPK", "≤ 0"],
  ["ATKSASPTLPTRRSR", 405],
  ["RRASLFPRDPKRLRP", 18.2],
  ["DTFLPPPPPPPSNFE", "≤ 0"],
  ["ANNQGPPNLPARDKS", 2],
  ["VSKLRSPNTPRRLRK", 266],
  ["LKHGWKPLRPIKLIS", 9.75],
  ["PELAPKREAPKPPAN", 17],
  ["GATNNAPTLPKRKNP", 7.12],
  ["LPMNIQPDLPPRKIM", 7.5],
  ["NLDRSKISLPDFDDE", 1.5]
]}
